The measurements presented in this section are drawn from patent US20150056222A1.

Target: T1, human prolactin receptor (PRLR) on cells (human, UniProt P16471 25-622)
T1 construct: T47D, T47D#11 and MCF7 carry the endogenous receptor; also called hPRLR; HEK293/hPRLR
T1 sequence: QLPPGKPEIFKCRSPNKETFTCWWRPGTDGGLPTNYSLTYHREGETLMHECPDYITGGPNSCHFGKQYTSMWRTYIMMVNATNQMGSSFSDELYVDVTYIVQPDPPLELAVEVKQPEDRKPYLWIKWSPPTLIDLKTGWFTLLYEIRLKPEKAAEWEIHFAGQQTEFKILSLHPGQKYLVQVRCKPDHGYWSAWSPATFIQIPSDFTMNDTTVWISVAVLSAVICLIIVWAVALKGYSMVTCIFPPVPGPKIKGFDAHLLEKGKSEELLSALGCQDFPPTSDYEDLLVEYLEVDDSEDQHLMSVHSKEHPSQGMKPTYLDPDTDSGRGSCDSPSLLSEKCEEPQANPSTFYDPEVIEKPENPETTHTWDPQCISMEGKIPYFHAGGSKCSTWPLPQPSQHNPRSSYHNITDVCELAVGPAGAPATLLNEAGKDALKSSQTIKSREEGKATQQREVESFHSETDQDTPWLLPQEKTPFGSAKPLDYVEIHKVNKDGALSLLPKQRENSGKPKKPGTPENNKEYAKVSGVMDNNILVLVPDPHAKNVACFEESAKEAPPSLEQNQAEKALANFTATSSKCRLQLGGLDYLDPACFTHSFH
Assay: FACS, T47D cells (native PRLR); further: test concentration or dose not given here
Measured attribute: FACS Cell Binding (Fold Above Background) (fold above background)
One number for each entry, in fold above background.

// solved cases for FACS Cell Binding (Fold Above Background) follow
Binder	Uom	Number
H1H6774P (antibody, human IgG1, V domains shown, human IgG1 Fc (H1H)) VH: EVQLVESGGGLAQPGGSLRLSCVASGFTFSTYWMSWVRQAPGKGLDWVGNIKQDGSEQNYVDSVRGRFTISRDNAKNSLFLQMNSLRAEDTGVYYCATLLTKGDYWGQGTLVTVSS VL: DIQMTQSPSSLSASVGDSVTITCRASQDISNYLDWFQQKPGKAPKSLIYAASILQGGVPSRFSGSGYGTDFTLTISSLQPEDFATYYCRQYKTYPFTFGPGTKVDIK	fold above background	39
H1H6793P (antibody, human IgG1, V domains shown, human IgG1 Fc (H1H)) VH: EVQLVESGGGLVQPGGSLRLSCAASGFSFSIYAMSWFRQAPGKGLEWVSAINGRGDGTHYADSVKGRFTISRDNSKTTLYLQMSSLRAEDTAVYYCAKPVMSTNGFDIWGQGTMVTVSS VL: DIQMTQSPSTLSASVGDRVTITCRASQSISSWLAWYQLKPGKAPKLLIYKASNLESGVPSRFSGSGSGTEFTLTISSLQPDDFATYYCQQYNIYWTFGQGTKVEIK	fold above background	43
H1H6781P (antibody, human IgG1, V domains shown, human IgG1 Fc (H1H)) VH: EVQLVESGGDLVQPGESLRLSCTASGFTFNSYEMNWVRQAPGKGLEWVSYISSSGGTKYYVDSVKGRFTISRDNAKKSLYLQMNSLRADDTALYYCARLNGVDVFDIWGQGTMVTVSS VL: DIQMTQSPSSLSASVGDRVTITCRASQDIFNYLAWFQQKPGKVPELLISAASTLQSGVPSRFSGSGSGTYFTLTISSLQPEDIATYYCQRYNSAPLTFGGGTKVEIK	fold above background	40
H1H6785P (antibody, human IgG1, V domains shown, human IgG1 Fc (H1H)) VH: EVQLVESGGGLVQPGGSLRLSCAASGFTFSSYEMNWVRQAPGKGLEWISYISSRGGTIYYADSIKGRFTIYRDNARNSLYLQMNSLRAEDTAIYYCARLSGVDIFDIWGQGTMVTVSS VL: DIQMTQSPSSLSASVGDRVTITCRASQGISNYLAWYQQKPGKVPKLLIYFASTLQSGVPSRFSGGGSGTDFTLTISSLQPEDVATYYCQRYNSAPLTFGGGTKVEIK	fold above background	40

Kindly review the next binder as well.
// FACS Cell Binding (Fold Above Background) value for H1H6795P (antibody, human IgG1, V domains shown, human IgG1 Fc (H1H)) VH: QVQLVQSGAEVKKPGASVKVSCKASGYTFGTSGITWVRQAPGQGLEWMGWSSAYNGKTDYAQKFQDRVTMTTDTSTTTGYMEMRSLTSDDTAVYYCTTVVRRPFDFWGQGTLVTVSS VL: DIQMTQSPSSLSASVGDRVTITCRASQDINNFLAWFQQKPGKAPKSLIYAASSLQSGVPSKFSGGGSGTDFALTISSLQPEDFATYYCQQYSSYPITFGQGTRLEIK : 34
